# System: Dialister pneumosintes
# assay.details: Antimicrobial activity against Dialister pneumosintes by agar dilution method
# Type: functional
metric: MIC (µg/mL)
Give a bare numeral; the unit µg/mL is implied.

stdin: Looking for the measured MIC of `C[C@@H](O)[C@H]1C(=O)N2C(C(=O)O)=C(S[C@@H]3CN[C@H](C(=O)Nc4cccc(C(=O)O)c4)C3)[C@H](C)[C@H]12` , can you help?
stdout: 0.125

stdin: Looking for the measured MIC of `CO[C@@]1(NC(=O)Cc2cccs2)C(=O)N2C(C(=O)O)=C(COC(N)=O)CS[C@@H]21` , can you help?
stdout: 0.5

stdin: Looking for the measured MIC of `CC[C@H]1OC(=O)[C@H](C)[C@@H](O[C@H]2C[C@@](C)(OC)[C@@H](O)[C@H](C)O2)[C@H](C)[C@@H](O[C@@H]2O[C@H](C)C[C@H](N(C)C)[C@H]2O)[C@](C)(O)C[C@@H](C)C(=O)[C@H](C)[C@@H](O)[C@]1(C)O` , can you help?
stdout: 0.125
